assay explanation: Half life at 10 uM in the presence of 100 uM reduced glutathione in H2O-Acetonitrile (1:1)
Type: ADME
test settings: reduced glutathione solution in H2O-acetonitrile (1:1)
endpoint label: half-life at 10 µM

Illustrative cases are given below, each with its answer.
{"columns": ["cpd smiles", "endpoint label", "measured"],
 "data": [
  ["CCOC1=CC(=O)C(Nc2ncnc3cc(OCCOC)c(OC)cc23)=CC1=O", "half-life at 10 µM", "72 h"],
  ["COCCOc1cc2ncnc(NC3=CC(=O)C(Cl)=CC3=O)c2cc1OC", "half-life at 10 µM", "< 0.02 h"],
  ["COCCOc1cc2ncnc(NC3=CC(=O)C(OC(C)C)=CC3=O)c2cc1OC", "half-life at 10 µM", "227 h"],
  ["COCCOc1cc2ncnc(NC3=CC(=O)C(OC)=CC3=O)c2cc1OC", "half-life at 10 µM", "80 h"],
  ["COCCOc1cc2ncnc(NC3=CC(=O)C(Oc4ccccc4)=CC3=O)c2cc1OC", "half-life at 10 µM", "< 0.02 h"],
  ["COCCOc1cc2ncnc(NC3=CC(=O)C(N(C)c4ccccc4)=CC3=O)c2cc1OC", "half-life at 10 µM", "295 h"],
  ["COCCOc1cc2ncnc(NC3=CC(=O)C(OC)=C(Cl)C3=O)c2cc1OC", "half-life at 10 µM", "0.5 h"],
  ["COCCOc1cc2ncnc(NC3=CC(=O)C(N(C)C)=CC3=O)c2cc1OC", "half-life at 10 µM", "601 h"],
  ["COCCOc1cc2ncnc(NC3=CC(=O)C(SC)=CC3=O)c2cc1OC", "half-life at 10 µM", "3 h"],
  ["COCCOc1cc2ncnc(NC3=CC(=O)C(N4CCN(Cc5ccccc5)CC4)=CC3=O)c2cc1OC", "half-life at 10 µM", "85 h"]
]}

### Prompt Please report the recorded half-life at 10 µM for COCCOc1cc2ncnc(NC3=CC(=O)C(Oc4ccc(-n5ccnc5)cc4)=CC3=O)c2cc1OC .
### Response < 0.02 h

### Prompt Please report the recorded half-life at 10 µM for COCCOc1cc2ncnc(NC3=CC(=O)C(OCc4ccccc4)=CC3=O)c2cc1OC .
### Response 54 h

### Prompt Please report the recorded half-life at 10 µM for COCCOc1cc2ncnc(NC3=CC(=O)C(OC(CF)CF)=CC3=O)c2cc1OC .
### Response 15 h

###

tested system: UniProtKB P35968
assay explanation: Inhibition of poly(Glu4-Tyr)peptide phosphorylation by recombinant VEGFR2 at 10 uM ATP
endpoint label: pIC50
Lab note: report pIC50 as minus log10 of the concentration in molar units, number only.

{"columns": ["cpd smiles", "endpoint label", "measured"],
 "data": [
  ["COCCOc1cc2ncnc(NC3=CC(=O)C(OCc4cccc(F)c4)=CC3=O)c2cc1OC", "pIC50", 7.51]
]}

### Prompt Please report the recorded pIC50 for COCCOc1cc2ncnc(NC3=CC(=O)C(OCc4ccccc4)=CC3=O)c2cc1OC .
### Response 7.37

###

tested system: Vascular endothelial growth factor receptor 2 (Homo sapiens)
assay explanation: Inhibition of poly(Glu4-Tyr)peptide phosphorylation by recombinant VEGFR2 at 10 uM ATP and in presence of 100 uM glutathione
Recorded measurements of IC50, one per entry
// return numeric value only (unit: nM, not printed)

{"columns": ["cpd smiles", "unit", "IC50"],
 "data": [
  ["COCCOc1cc2ncnc(NC3=CC(=O)C(OCc4cccc(F)c4)=CC3=O)c2cc1OC", "nM", 41.9]
]}

Next compound, please.
### Prompt Please report the recorded IC50 for COCCOc1cc2ncnc(NC3=CC(=O)C(OCc4ccccc4)=CC3=O)c2cc1OC .
### Response 50.3

###

tested system: Vascular endothelial growth factor receptor 2 (Homo sapiens)
assay explanation: Inhibition of poly(Glu4-Tyr)peptide phosphorylation by recombinant VEGFR2 at 10 uM ATP and in presence of 5% mouse plasma
Format: cell-free
endpoint label: IC50 (nM)
// return numeric value only (unit: nM, not printed)

{"columns": ["cpd smiles", "tested system", "measured"],
 "data": [
  ["COCCOc1cc2ncnc(NC3=CC(=O)C(OCc4ccccc4)=CC3=O)c2cc1OC", "Vascular endothelial growth factor receptor 2 (Homo sapiens)", 366]
]}

### Prompt Please report the recorded IC50 for COCCOc1cc2ncnc(NC3=CC(=O)C(OCc4cccc(F)c4)=CC3=O)c2cc1OC .
### Response 256

###

tested system: UniProt:P35968
assay explanation: Inhibitory activity against VEGF stimulated autophosphorylation of VEGFR2 expressed in KDR15 cells
Format: cell-based
pIC50: −log10 of the molar value.
endpoint label: pIC50

### Prompt Please report the recorded pIC50 for CCOC1=CC(=O)C(Nc2ncnc3cc(OCCOC)c(OC)cc23)=CC1=O .
### Response < 6.00

###

assay explanation: Half life at 1 uM in the presence of 100 uM reduced glutathione in H2O-Acetonitrile (1:1)
Type: ADME
test settings: reduced glutathione solution in H2O-acetonitrile (1:1)
// classify(record): look up half-life at 1 µM in ranges low range: < 60 h; mid range: ≥ 60 h and < 200 h; high range: ≥ 200 h

{"columns": ["cpd smiles", "class name"],
 "data": [
  ["COCCOc1cc2ncnc(NC3=CC(=O)C(N(C)C)=CC3=O)c2cc1OC", "mid range"],
  ["COCCOc1cc2ncnc(NC3=CC(=O)C(OC)=CC3=O)c2cc1OC", "mid range"]
]}

### Prompt Exercise: read the entry COCCOc1cc2ncnc(NC3=CC(=O)C(Cl)=CC3=O)c2cc1OC and state which class it falls under.
### Response low range

### Prompt Exercise: read the entry COCCOc1cc2ncnc(NC3=CC(=O)C(OC(C)C)=CC3=O)c2cc1OC and state which class it falls under.
### Response high range

### Prompt Exercise: read the entry COCCOc1cc2ncnc(NC3=CC(=O)C(N(C)c4ccccc4)=CC3=O)c2cc1OC and state which class it falls under.
### Response high range

### Prompt Exercise: read the entry COCCOc1cc2ncnc(NC3=CC(=O)C(Oc4ccc(-n5ccnc5)cc4)=CC3=O)c2cc1OC and state which class it falls under.
### Response low range

### Prompt Exercise: read the entry COCCOc1cc2ncnc(NC3=CC(=O)C(OC)=C(Cl)C3=O)c2cc1OC and state which class it falls under.
### Response low range

### Prompt Exercise: read the entry COCCOc1cc2ncnc(NC3=CC(=O)C(OCc4ccccc4)=CC3=O)c2cc1OC and state which class it falls under.
### Response low range

### Prompt Exercise: read the entry CCOC1=CC(=O)C(Nc2ncnc3cc(OCCOC)c(OC)cc23)=CC1=O and state which class it falls under.
### Response mid range

###

Recorded measurements of IC50, one per entry
tested system: UniProt:P35968
assay explanation: Inhibition of poly(Glu4-Tyr)peptide phosphorylation by recombinant VEGFR2 at 10 uM ATP

Illustrative cases are given below, each with its answer.
{"columns": ["compound", "tested system", "IC50"],
 "data": [
  ["COCCOc1cc2ncnc(NC3=C(Sc4ccccn4)C(=O)C=C(OC)C3=O)c2cc1OC", "UniProt:P35968", "> 1000 nM"],
  ["CCOC1=CC(=O)C(Nc2ncnc3cc(OCCOC)c(OC)cc23)=CC1=O", "UniProt:P35968", "> 1000 nM"]
]}

### Prompt Please report the recorded IC50 for COCCOc1cc2ncnc(NC3=CC(=O)C(NCC(C)O)=CC3=O)c2cc1OC (stereo not drawn) .
### Response > 1000 nM

###

tested system: Vascular endothelial growth factor receptor 2 (Homo sapiens, UniProt P35968)
Sequence (P35968 whole entry): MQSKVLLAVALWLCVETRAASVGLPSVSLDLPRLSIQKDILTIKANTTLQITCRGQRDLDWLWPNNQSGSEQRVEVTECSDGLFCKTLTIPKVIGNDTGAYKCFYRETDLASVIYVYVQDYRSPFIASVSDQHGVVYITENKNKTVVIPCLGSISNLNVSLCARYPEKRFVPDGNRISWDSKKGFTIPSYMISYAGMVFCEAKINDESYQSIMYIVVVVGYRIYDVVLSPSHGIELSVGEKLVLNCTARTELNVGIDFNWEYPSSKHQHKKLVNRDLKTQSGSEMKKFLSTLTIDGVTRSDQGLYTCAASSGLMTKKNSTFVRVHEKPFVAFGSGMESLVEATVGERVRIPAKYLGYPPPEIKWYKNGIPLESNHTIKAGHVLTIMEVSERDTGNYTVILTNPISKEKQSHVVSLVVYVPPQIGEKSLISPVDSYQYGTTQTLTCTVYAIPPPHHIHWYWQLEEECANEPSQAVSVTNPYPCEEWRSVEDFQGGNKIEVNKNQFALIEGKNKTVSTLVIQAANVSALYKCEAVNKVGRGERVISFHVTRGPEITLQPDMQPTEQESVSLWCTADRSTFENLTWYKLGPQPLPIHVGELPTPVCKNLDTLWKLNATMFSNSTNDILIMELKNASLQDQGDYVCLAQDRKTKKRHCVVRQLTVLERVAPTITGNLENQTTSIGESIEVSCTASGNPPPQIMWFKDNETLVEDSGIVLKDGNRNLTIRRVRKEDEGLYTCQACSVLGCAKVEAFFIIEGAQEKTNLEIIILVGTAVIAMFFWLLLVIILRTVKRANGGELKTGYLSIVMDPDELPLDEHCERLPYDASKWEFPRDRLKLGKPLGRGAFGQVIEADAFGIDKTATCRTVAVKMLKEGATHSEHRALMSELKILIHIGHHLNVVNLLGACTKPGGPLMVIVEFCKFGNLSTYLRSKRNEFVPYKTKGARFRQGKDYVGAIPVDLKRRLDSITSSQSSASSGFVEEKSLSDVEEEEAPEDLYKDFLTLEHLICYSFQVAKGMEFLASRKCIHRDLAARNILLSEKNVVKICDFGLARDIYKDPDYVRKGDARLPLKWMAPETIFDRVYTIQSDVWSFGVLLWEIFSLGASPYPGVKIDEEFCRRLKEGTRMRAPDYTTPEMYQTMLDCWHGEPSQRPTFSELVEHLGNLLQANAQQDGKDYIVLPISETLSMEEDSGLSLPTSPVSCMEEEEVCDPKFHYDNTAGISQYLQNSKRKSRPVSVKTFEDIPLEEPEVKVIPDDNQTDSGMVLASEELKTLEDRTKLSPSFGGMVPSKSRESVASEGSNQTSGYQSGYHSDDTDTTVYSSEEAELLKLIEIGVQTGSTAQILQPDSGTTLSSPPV
assay explanation: Inhibition of poly(Glu4-Tyr)peptide phosphorylation by recombinant VEGFR2 at 10 uM ATP and in presence of 100 uM glutathione
endpoint label: IC50

Illustrative cases are given below, each with its answer.
{"columns": ["compound", "IC50"],
 "data": [
  ["COCCOc1cc2ncnc(NC3=C(Sc4ccccn4)C(=O)C=C(OC)C3=O)c2cc1OC", "> 1 µM"],
  ["COCCOc1cc2ncnc(NC3=CC(=O)C(NCC(C)O)=CC3=O)c2cc1OC (stereo not drawn)", "> 1 µM"]
]}

### Prompt Please tell me: IC50 of CCOC1=CC(=O)C(Nc2ncnc3cc(OCCOC)c(OC)cc23)=CC1=O , system Vascular endothelial growth factor receptor 2 (Homo sapiens, UniProt P35968)?
### Response > 1 µM

###

tested system: Vascular endothelial growth factor receptor 2 (Homo sapiens, UniProt P35968)
assay explanation: Inhibition of poly(Glu4-Tyr)peptide phosphorylation by recombinant VEGFR2 at 10 uM ATP and in presence of 5% mouse plasma
Format: cell-free
pIC50: −log10 of the molar value.
endpoint label: pIC50

Illustrative cases are given below, each with its answer.
{"columns": ["molecule", "pIC50"],
 "data": [
  ["COCCOc1cc2ncnc(NC3=CC(=O)C(NCC(C)O)=CC3=O)c2cc1OC (stereo not drawn)", "< 6.00"],
  ["CCOC1=CC(=O)C(Nc2ncnc3cc(OCCOC)c(OC)cc23)=CC1=O", "< 6.00"]
]}

Next molecule, please.
### Prompt Please report the recorded pIC50 for COCCOc1cc2ncnc(NC3=C(Sc4ccccn4)C(=O)C=C(OC)C3=O)c2cc1OC .
### Response < 6.00

Sourced from ChEMBL document CHEMBL1141211
